tested on: SK-LU-1; assay: relative viability (nuclei count vs DMSO), 5 days (fraction); higher = more cells survive; settings: first compound 0.2 µM
Kindly state relative viability for each of the entries shown.
Give bare numbers.

Cc1csc(=NC2CCCCC2)n1/N=C/c1ccc(O)c(O)c1O [MIM1] + CC(=O)Nc1cccc(-n2c(=O)n(C3CC3)c(=O)c3c(Nc4ccc(I)cc4F)n(C)c(=O)c(C)c32)c1 [Trametinib] (partner 0.02 µM): 0.471
CCNC(=O)c1noc(-c2cc(C(C)C)c(O)cc2O)c1-c1ccc(CN2CCOCC2)cc1 [Luminespib] + C[C@@H](Oc1cc(-c2cnn(C3CCNCC3)c2)cnc1N)c1c(Cl)ccc(F)c1Cl [Crizotinib] (partner 1 µM): 0.155
Cc1csc(=NC2CCCCC2)n1/N=C/c1ccc(O)c(O)c1O [MIM1] + N=C(N)NC(=N)NCCc1ccccc1 [Phenformin] (partner 250 µM): 0.533

Task: Item: CN1CCN(CCOc2cc(OC3CCOCC3)c3c(Nc4c(Cl)ccc5c4OCO5)ncnc3c2)CC1 [Saracatinib] + COc1cc2c(Oc3ccc(NC(=O)C4(C(=O)Nc5ccc(F)cc5)CC4)cc3F)ccnc2cc1OCCCN1CCOCC1 [Foretinib] (partner 0.25 µM) Test system: SK-LU-1 Read-out: relative viability Value: ?
Result: 0.51
